# System: HeLa
# protocol-notes: Cytotoxicity against human HeLa cells assessed as reduction in cell viability using compound addition to cell culture cells in log phase of growth and incubated for 48 hrs by MTT assay
# Type: functional, cell-based
# assay-conditions: Homo sapiens, HeLa, 48 h; read-out: IC50
pIC50: −log10 of the molar value.
measured-property: pIC50

[[record]]
line_notation = "CC1=C(CO[Si](C)(C)C(C)(C)C)C(=O)O[C@@H]([C@@H](C)[C@H]2CC[C@H]3[C@@H]4C[C@H](Cl)[C@]5(O)[C@@H](O)C=CC(=O)[C@]5(C)[C@H]4CC[C@]23C)C1"
measured_property = "pIC50"
relation_sign = "="
result = 5.47

[[record]]
line_notation = "CC1=C(CO)C(=O)O[C@@H]([C@@H](C)[C@H]2CC[C@H]3[C@@H]4C[C@@H](O)[C@]5(C=O)C=CC(=O)[C@]5(C)[C@H]4CC[C@]23C)C1"
measured_property = "pIC50"
relation_sign = "<"
result = 4.40

[[record]]
line_notation = "COc1ccc(C(=O)OCC2=C(C)C[C@H]([C@@H](C)[C@H]3CC[C@H]4[C@@H]5C[C@H](Cl)[C@]6(O)[C@@H](OC(=O)c7ccc(OC)cc7)C=CC(=O)[C@]6(C)[C@H]5CC[C@]34C)OC2=O)cc1"
measured_property = "pIC50"
relation_sign = "="
result = 4.55


* * *

# Tested on: MCF7
# protocol-notes: Cytotoxicity against human MCF7 cells assessed as reduction in cell viability using compound addition to cell culture cells in log phase of growth and incubated for 48 hrs by MTT assay
# Format: functional, cell-based
# assay-conditions: Homo sapiens, MCF7, 48 h; read-out: IC50
measured-property: IC50 (µM)

[[record]]
molecule = "CC1=C(CO)C(=O)O[C@@H]([C@@H](C)[C@H]2CC[C@H]3[C@@H]4C[C@H]5O[C@]56[C@@H](O)[C@@H](N(Cc5ccccc5)Cc5ccccc5)CC(=O)[C@]6(C)[C@H]4CC[C@]23C)C1"
measured_property = "IC50"
relation_sign = "="
result = 18.5

[[record]]
molecule = "CC1=C(COC(=O)C(C)(C)C)C(=O)O[C@@H]([C@@H](C)[C@H]2CC[C@H]3[C@@H]4C[C@H]5O[C@]56C(=O)C=CC(=O)[C@]6(C)[C@H]4CC[C@]23C)C1"
measured_property = "IC50"
relation_sign = "="
result = 1.2

[[record]]
molecule = "CC1=C(CO)C(=O)O[C@@H]([C@@H](C)[C@H]2CC[C@H]3[C@@H]4C[C@H]5O[C@]56[C@@H](O)C=CC(=O)[C@]6(C)[C@H]4CC[C@]23C)C1 [WITHAFERIN A]"
measured_property = "IC50"
relation_sign = "="
result = 1.3

[[record]]
molecule = "CO[C@H]1CC(=O)[C@]2(C)[C@H]3CC[C@]4(C)[C@@H]([C@H](C)[C@H]5CC(C)=C(CO)C(=O)O5)CC[C@H]4[C@@H]3C[C@H]3O[C@]32[C@H]1O"
measured_property = "IC50"
relation_sign = ">"
result = 40

[[record]]
molecule = "CC1=C(COC(=O)c2cccc3ccccc23)C(=O)O[C@@H]([C@@H](C)[C@H]2CC[C@H]3[C@@H]4C[C@H]5O[C@]56[C@@H](OC(=O)c5cccc7ccccc57)C=CC(=O)[C@]6(C)[C@H]4CC[C@]23C)C1"
measured_property = "IC50"
relation_sign = ">"
result = 40

[[record]]
molecule = "CC1=C(CO)C(=O)O[C@@H]([C@@H](C)[C@H]2CC[C@H]3[C@@H]4C[C@@H]5ON[C@@H]6CC(=O)[C@](C)([C@H]4CC[C@]23C)[C@@]5(O)[C@H]6O)C1"
measured_property = "IC50"
relation_sign = ">"
result = 40

[[record]]
molecule = "CC1=C(CO)C(=O)O[C@@H]([C@@H](C)[C@H]2CC[C@H]3[C@@H]4C[C@H]5O[C@]56[C@@H](O)CCC(=O)[C@]6(C)[C@H]4CC[C@]23C)C1"
measured_property = "IC50"
relation_sign = "="
result = 12.2


* * *

# Test system: HeLa
# protocol-notes: Cytotoxicity against human HeLa cells assessed as reduction in cell viability using compound addition to cell culture cells in log phase of growth and incubated for 48 hrs by MTT assay
# Format: functional, cell-based
# assay-conditions: Homo sapiens, HeLa, 48 h; read-out: IC50
pIC50: −log10 of the molar value.
measured-property: pIC50

[[record]]
line_notation = "CCCCCCCC(=O)OCC1=C(C)C[C@H]([C@@H](C)[C@H]2CC[C@H]3[C@@H]4C[C@H]5O[C@]56[C@@H](OC(=O)CCCCCCC)C=CC(=O)[C@]6(C)[C@H]4CC[C@]23C)OC1=O"
relation_sign = "<"
result = 4.40

[[record]]
line_notation = "CC1=C(C=O)C(=O)O[C@@H]([C@@H](C)[C@H]2CC[C@H]3[C@@H]4C[C@H]5O[C@]56C(=O)C=CC(=O)[C@]6(C)[C@H]4CC[C@]23C)C1"
relation_sign = "="
result = 4.73

[[record]]
line_notation = "CC1=C(CO)C(=O)O[C@@H]([C@@H](C)[C@H]2CC[C@H]3[C@@H]4C[C@H]5O[C@]56[C@@H](O)[C@@H](NCc5ccccc5)CC(=O)[C@]6(C)[C@H]4CC[C@]23C)C1"
relation_sign = "="
result = 4.96

[[record]]
line_notation = "CO[C@H]1C=CC(=O)[C@]2(C)[C@H]3CC[C@]4(C)[C@@H]([C@H](C)[C@H]5CC(C)=C(CO)C(=O)O5)CC[C@H]4[C@@H]3C[C@H]3O[C@]132"
relation_sign = "="
result = 5.42

[[record]]
line_notation = "CC1=C(COC(=O)c2ccoc2)C(=O)O[C@@H]([C@@H](C)[C@H]2CC[C@H]3[C@@H]4C[C@H]5O[C@]56[C@@H](O)C=CC(=O)[C@]6(C)[C@H]4CC[C@]23C)C1"
relation_sign = "="
result = 5.96


* * *

# Tested on: A549
# protocol-notes: Cytotoxicity against human A549 cells assessed as reduction in cell viability using compound addition to cell culture cells in log phase of growth and incubated for 48 hrs by MTT assay
# Assay type: functional, cell-based
# assay-conditions: Homo sapiens, A549, 48 h; read-out: IC50
The following molecules are listed with their measured IC50 values.
measured-property: IC50

[[record]]
line_notation = "CC1=C(CO)C(=O)O[C@@H]([C@@H](C)[C@H]2CC[C@H]3[C@@H]4C[C@@H]5ON[C@@H]6CC(=O)[C@](C)([C@H]4CC[C@]23C)[C@@]5(O)[C@H]6O)C1"
target_or_test_system = "A549"
result = "> 40 µM"

[[record]]
line_notation = "CC1=C(CO)C(=O)O[C@@H]([C@@H](C)[C@H]2CC[C@H]3[C@@H]4C[C@H]5O[C@]56[C@@H](O)[C@@H](N(Cc5ccccc5)Cc5ccccc5)CC(=O)[C@]6(C)[C@H]4CC[C@]23C)C1"
target_or_test_system = "A549"
result = "> 40 µM"

[[record]]
line_notation = "CC1=C(COC(=O)C(C)(C)C)C(=O)O[C@@H]([C@@H](C)[C@H]2CC[C@H]3[C@@H]4C[C@H]5O[C@]56[C@@H](OC(=O)C(C)(C)C)C=CC(=O)[C@]6(C)[C@H]4CC[C@]23C)C1"
target_or_test_system = "A549"
result = "4.6 µM"


* * *

# Test system: A549
# protocol-notes: Cytotoxicity against human A549 cells assessed as reduction in cell viability using compound addition to cell culture cells in log phase of growth and incubated for 48 hrs by MTT assay
# Assay type: functional, cell-based
# assay-conditions: Homo sapiens, A549, 48 h; read-out: IC50
pIC50: −log10 of the molar value.
Here the recorded pIC50 is given for each entry.
measured-property: pIC50

[[record]]
line_notation = "CCCCCCCC(=O)OCC1=C(C)C[C@H]([C@@H](C)[C@H]2CC[C@H]3[C@@H]4C[C@H](Cl)[C@]5(O)[C@@H](O)C=CC(=O)[C@]5(C)[C@H]4CC[C@]23C)OC1=O"
relation_sign = "<"
result = 4.40

[[record]]
line_notation = "CCCCCCCCCCCC(=O)OCC1=C(C)C[C@H]([C@@H](C)[C@H]2CC[C@H]3[C@@H]4C[C@H]5O[C@]56[C@@H](O)C=CC(=O)[C@]6(C)[C@H]4CC[C@]23C)OC1=O"
relation_sign = "="
result = 4.91

[[record]]
line_notation = "COC(=O)CCC(=O)OCC1=C(C)C[C@H]([C@@H](C)[C@H]2CC[C@H]3[C@@H]4C[C@H]5O[C@]56[C@@H](O)C=CC(=O)[C@]6(C)[C@H]4CC[C@]23C)OC1=O"
relation_sign = "="
result = 5.43


* * *

# Test system: MCF7
# protocol-notes: Cytotoxicity against human MCF7 cells assessed as reduction in cell viability using compound addition to cell culture cells in log phase of growth and incubated for 48 hrs by MTT assay
# Format: functional, cell-based
# assay-conditions: Homo sapiens, MCF7, 48 h; read-out: IC50
pIC50: −log10 of the molar value.
Quick reference for pIC50 among some compounds
measured-property: pIC50

[[record]]
line_notation = "CCCC(=O)OCC1=C(C)C[C@H]([C@@H](C)[C@H]2CC[C@H]3[C@@H]4C[C@H]5O[C@]56[C@@H](O)C=CC(=O)[C@]6(C)[C@H]4CC[C@]23C)OC1=O"
measured_property = "pIC50"
relation_sign = "="
result = 6.00

[[record]]
line_notation = "CC1=C(CO)C(=O)O[C@@H]([C@@H](C)[C@H]2CC[C@H]3[C@@H]4C[C@H]5O[C@]56[C@@H](O)[C@H]5O[C@H]5C(=O)[C@]6(C)[C@H]4CC[C@]23C)C1"
measured_property = "pIC50"
relation_sign = "<"
result = 4.40

